- Assay Target: hAQP1 (Homo sapiens, UniProt P29972)
- Construct: made in house; host or cells: Spodoptera frugiperda (Sf9) insect cells, baculovirus vector pFB-LIC-Bse
- Sequence (P29972 1-269): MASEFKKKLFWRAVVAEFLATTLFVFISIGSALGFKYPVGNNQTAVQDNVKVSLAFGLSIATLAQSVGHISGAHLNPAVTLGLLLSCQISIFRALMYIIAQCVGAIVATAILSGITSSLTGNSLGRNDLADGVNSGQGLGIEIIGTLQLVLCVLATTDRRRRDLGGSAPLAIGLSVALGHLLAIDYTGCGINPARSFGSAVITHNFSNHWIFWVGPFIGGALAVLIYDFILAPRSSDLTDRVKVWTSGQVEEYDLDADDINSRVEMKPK
- Measurement Description: Thermal aggregation shift assay (differential static light scattering, DSLS)
- Type: binding
- Condition Parameters: hAQP1 incubated in 1 mM of fragment; hAQP1 alone 54.6 ± 0.1
- Procedure: Temperature-dependent protein aggregation was measured with static light scattering (Stargazer-384, Harbinger Biotech, Markham, ON, Canada) as previously described with modifications. […] Data collated was analyzed using the Bioactive software (Harbinger Biotech). […]
Rule: Tagg of 60 °C or more gives Y; anything lower gives N.

Q: Decide: Tagg of NCc1ccc(-c2ccc(C(F)(F)F)cn2)cc1 >= 60 °C?
Result: N

Q: Now give it for NCCc1coc2ccccc12 too.
Result: N

Q: Another molecule: Cc1cc2cc(N)ccc2[nH]1
Result: N

Q: Okay, and OC1CCCNC1 (stereo not drawn) ?
Result: Y

Q: // repeat for CNCc1scc2c1OCCO2 and report
Result: Y

Q: For Nc1snnc1-c1ccc(C(F)(F)F)cc1 then?
Result: N

Q: Another molecule: Nc1ccc2c(c1)OCCO2
Result: N

Q: Do the same for Nc1cccc(CN2CCCC2)c1 please
Result: Y

Q: Lookup NCCNc1cccc2ccccc12
Result: N

Q: Follow-up entry: NCc1cccc(N2CCCCC2)n1
Result: Y

---

- Assay Target: hAQP1 (Homo sapiens)
- Construct: made in house; host or cells: Spodoptera frugiperda (Sf9) insect cells, baculovirus vector pFB-LIC-Bse
- Sequence (P29972 1-269): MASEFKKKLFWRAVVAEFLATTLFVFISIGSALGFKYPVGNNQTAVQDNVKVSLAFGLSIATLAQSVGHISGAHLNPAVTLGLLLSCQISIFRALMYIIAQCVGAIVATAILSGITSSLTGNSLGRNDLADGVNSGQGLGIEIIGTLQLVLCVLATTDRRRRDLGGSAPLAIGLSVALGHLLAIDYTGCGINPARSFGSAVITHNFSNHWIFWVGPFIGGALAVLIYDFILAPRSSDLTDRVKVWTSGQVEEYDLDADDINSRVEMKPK
- Measurement Description: Surface plasmon resonance (SPR) fragment binding to immobilized hAQP1
- Condition Parameters: inset table of the Figure 5 sensorgram; read-out: KD (inset table)
pKd: −log10 of the molar value.
Response key: YES means pKd >= 3; NO means pKd < 3.

Q: Textbook exercise: given the entry Cc1cc2cc(N)ccc2[nH]1 , state whether its pKd is greater than or equal to 3.
Result: YES

Q: Similarly, O=Nc1c(O)ccc2ccccc12 ?
Result: YES

Q: Likewise for NCc1cccc(N2CCCCC2)n1 ?
Result: YES

Q: Now try NCc1ccc(-c2ccc(C(F)(F)F)cn2)cc1 .
Result: NO

---

Assignment: determine reported Kd for the given compounds.
- Assay Target: hAQP1 (Homo sapiens, UniProt P29972)
- Construct: made in house; host or cells: Spodoptera frugiperda (Sf9) insect cells, baculovirus vector pFB-LIC-Bse
- Measurement Description: Surface plasmon resonance (SPR) fragment binding to immobilized hAQP1
- Condition Parameters: inset table of the Figure 5 sensorgram; read-out: KD (inset table)
Express your answer in µM, writing the number without its unit.

Q: Lab note: need Kd for c1ccc2c(c1)CCNCC2 on hAQP1 (Homo sapiens, UniProt P29972), anyone have it?
Result: 962

Q: Moving on to Nc1ccc2c(c1)OCCO2
Result: 902

Q: # repeat for OCc1cccc(-c2ccco2)c1
Result: 982

Origin of measurements: paper PMC4848905
